tested on: HCC1937 (Breast Carcinoma); test: combination Emax (second highest fraction inhibited in the dose matrix, 72 h); higher = more inhibition; extreme values may be limits of the assay
Note to self: values exactly at 0.4 are MET. So combination Emax at or above 0.4 is MET, below is NOT MET.

# COMPOUND, CAT
records = [
    ("COc1cccc(OCCCN)c1-c1cc(Nc2cnc(C#N)cn2)n[nH]1 [Prexasertib] + CCc1c2c(nc3ccc(O)cc13)-c1cc3c(c(=O)n1C2)COC(=O)[C@]3(O)CC [SN-38] (first compound max 1 µM, 7x7, partner max 0.3 µM)", "MET"),
    ("CN(CCO)CC[C@H](CSc1ccccc1)Nc1ccc(S(=O)(=O)NC(=O)c2ccc(N3CCC([C@@H](O)c4ccccc4-c4ccc(Cl)cc4)CC3)cc2)cc1S(=O)(=O)C(F)(F)F [AZD4320] + Cc1cc2ncnn2cc1Nc1ncc2c(n1)n(C1CCOCC1)c(=O)n2C [AZD7648] (first compound max 1 µM, 7x7, partner max 10 µM)", "NOT MET"),
    ("COc1nnc2ccc(N3CCC(c4ccc(OCCN5CCN(C)C(=O)[C@H]5C)cc4)CC3)nn12 [AZD5153] + CC1(C)CCC(CN2CCN(c3ccc(C(=O)NS(=O)(=O)c4ccc(NCC5CCOCC5)c([N+](=O)[O-])c4)c(Oc4cnc5[nH]ccc5c4)c3)CC2)=C(c2ccc(Cl)cc2)C1 [Venetoclax] (first compound max 1 µM, 7x7, partner max 1 µM)", "NOT MET"),
    ("CC1(C)CCC(CN2CCN(c3ccc(C(=O)NS(=O)(=O)c4ccc(NCC5CCOCC5)c([N+](=O)[O-])c4)c(Oc4cnc5[nH]ccc5c4)c3)CC2)=C(c2ccc(Cl)cc2)C1 [Venetoclax] + Cc1cc2ncnn2cc1Nc1ncc2c(n1)n(C1CCOCC1)c(=O)n2C [AZD7648] (first compound max 1 µM, 7x7, partner max 10 µM)", "NOT MET"),
    ("Cc1c2c(nn1C)CSCc1cc(n(C)n1)CSc1cc(c3ccccc3c1)OCCCc1c(C(=O)O)n(C)c3c-2c(Cl)ccc13 [AZD5991] + C[C@@H]1COCCN1C2=NC(=NC(=C2)C3(CC3)[S@](=N)(=O)C)C4=C5C=CNC5=NC=C4 [AZD6738] (first compound max 1 µM, 7x7, partner max 10 µM)", "MET"),
]

Is the recorded value of combination Emax equal to or greater than 0.4 for this compound? Cc1c2c(nn1C)CSCc1cc(n(C)n1)CSc1cc(c3ccccc3c1)OCCCc1c(C(=O)O)n(C)c3c-2c(Cl)ccc13 [AZD5991] + CN(C)CCCOc1ccc(-c2ccc3ncc4c(c3c2)n(C2CCOCC2)c(=O)n4C)cn1 [AZD0156] (first compound max 1 µM, 7x7, partner max 1 µM)
NOT MET

Is the recorded value of combination Emax equal to or greater than 0.4 for this compound? CC(=O)c1c(C)c2cnc(Nc3ccc(N4CCNCC4)cn3)nc2n(C2CCCC2)c1=O [Palbociclib] + CN(CC[C@H](CSC1=CC=CC=C1)NC2=C(C=C(C=C2)S(=O)(=O)NC(=O)C3=CC=C(C=C3)N4CCC(CC4)[C@H](C5=CC=CC=C5C6=CC=C(C=C6)Cl)O)S(=O)(=O)C(F)(F)F)CCO [AZD4320] (first compound max 10 µM, 7x7, partner max 1 µM)
MET

Is the recorded value of combination Emax equal to or greater than 0.4 for this compound? CN(CCO)CC[C@H](CSc1ccccc1)Nc1ccc(S(=O)(=O)NC(=O)c2ccc(N3CCC([C@@H](O)c4ccccc4-c4ccc(Cl)cc4)CC3)cc2)cc1S(=O)(=O)C(F)(F)F [AZD4320] + C=CCn1c(=O)c2cnc(Nc3ccc(N4CCN(C)CC4)cc3)nc2n1-c1cccc(C(C)(C)O)n1 [AZD1775] (first compound max 1 µM, partner max 1 µM)
MET

Is the recorded value of combination Emax equal to or greater than 0.4 for this compound? CN(CCO)CC[C@H](CSc1ccccc1)Nc1ccc(S(=O)(=O)NC(=O)c2ccc(N3CCC([C@@H](O)c4ccccc4-c4ccc(Cl)cc4)CC3)cc2)cc1S(=O)(=O)C(F)(F)F [AZD4320] + C1CN(CCC1(C(=O)N[C@@H](CCO)C2=CC=C(C=C2)Cl)N)C3=NC=NC4=C3C=CN4 [Capivasertib] (first compound max 1 µM, 7x7, partner max 3 µM)
MET

Data provenance: the supplement of paper PMC11061612
